Measurement record for Mu-type opioid receptor (Homo sapiens, UniProt P35372); quantity recorded: Ki.

Examples from the recorded data:
NC(=O)C[C@@H](NC(=O)[C@H](Cc1ccccc1)NC(=O)[C@@H]1Cc2ccccc2CN1C(=O)[C@@H](N)Cc1ccc(O)cc1)C(=O)O > 4.5 µM
CC(=O)NCCCC[C@H](NC(=O)[C@H](Cc1ccccc1)NC(=O)[C@@H]1Cc2ccccc2CN1C(=O)[C@@H](N)Cc1ccc(O)cc1)C(=O)O > 4.5 µM

Qu. Reported Ki for "NC(=O)[C@@H](CC(=O)O)NC(=O)[C@H](Cc1ccccc1)NC(=O)[C@@H]1Cc2ccccc2CN1C(=O)[C@@H](N)Cc1ccc(O)cc1" : what is it?
Ans. > 4.5 µM
